# System: Avena fatua (AVEFA)
# test description: Post-emergence herbicidal activity (B2)
# Assay type: in vivo
# condition info: Test B2a, 1000 g/ha, evaluated after 13 days, 5=total damage to plant, 0=no damage to plant
assay readout: AVEFA damage score
Lab note: write the figure by itself, no unit.

>>> endpoint_result("Fc1cncc(-c2ccc(N3CCC3)c(C(F)(F)F)n2)c1")
3

# query: AVEFA damage score of entry Nc1ccc(-c2cncc(Cl)c2)nc1C(F)(F)F
3

# repeat for N#Cc1nc(-c2cncnc2)ccc1N
2

# repeat for Fc1cncc(-c2ccc(NCC3CCCCC3)c(C(F)(F)F)n2)c1
3

# repeat for Fc1cncc(-c2ccc(NCc3cc4ccccn4n3)c(C(F)(F)F)n2)c1
4

# repeat for Fc1cncc(-c2ccc(NCc3cscn3)c(C(F)(F)F)n2)c1
4

# repeat for CCCCCCNc1ccc(-c2cncc(F)c2)nc1C(F)(F)F
3

# repeat for COC(=O)c1nc(-c2cncc(F)c2)ccc1N
1

###

# System: Abutilon theophrasti (ABUTH)
# test description: Post-emergence herbicidal activity (B2)
# Assay type: in vivo
# condition info: Test B2b, 1000 g/ha, evaluated after 13 days, 5=total damage to plant, 0=no damage to plant
ABUTH damage score values for the compounds below.
Lab note: write the figure by itself, no unit.

Study these solved cases before continuing.
>>> endpoint_result("Fc1ccc(CNc2ccc(-c3cncc(F)c3)nc2C(F)(F)F)cc1 [Compound A31]")
0
>>> endpoint_result("CNc1ccc(-c2cncc(C)c2)nc1C(F)(F)F [Compound A6]")
0
>>> endpoint_result("COc1cncc(-c2ccc(N)c(C)n2)c1 [Compound A13]")
0

# query: ABUTH damage score of entry Fc1cncc(-c2ccc(NCC3CC3)c(C(F)(F)F)n2)c1 [Compound A29]
2

# repeat for Cc1nc(-c2cccnc2)ccc1N [Compound A36]
0

###

# System: Setaria faberi (SETFA)
# test description: Pre-emergence herbicidal activity (B1)
# Type: in vivo
# condition info: Test 1a, 1000 g/ha, evaluated after 13 days, 5=total damage to plant, 0=no damage to plant
SETFA damage score values for the compounds below.
Lab note: write the figure by itself, no unit.

>>> endpoint_result("Fc1cncc(-c2ccc(NC3CCCCC3)c(C(F)(F)F)n2)c1")
4

# query: SETFA damage score of entry Fc1cncc(-c2ccc(N3CCCC3C(F)(F)F)c(C(F)(F)F)n2)c1 (centres unmarked)
1

# repeat for CCCCCCNc1ccc(-c2cncc(F)c2)nc1C(F)(F)F
5

# repeat for Fc1cncc(-c2ccc(NCC3CCCCC3)c(C(F)(F)F)n2)c1
5

# repeat for Nc1ccc(-c2cncc(F)c2)nc1-c1ccccc1
1

###

# System: Abutilon theophrasti (ABUTH)
# test description: Post-emergence herbicidal activity (B2)
# Format: in vivo
# condition info: Test B2b, 1000 g/ha, evaluated after 13 days, 5=total damage to plant, 0=no damage to plant
ABUTH damage score values for the compounds below.

Study these solved cases before continuing.
>>> endpoint_result("CNc1ccc(-c2cncnc2)nc1C(F)(F)F [Compound A34]")
1
>>> endpoint_result("Fc1cncc(-c2ccc(NCc3cccc(Cl)c3)c(C(F)(F)F)n2)c1 [Compound A18]")
0
>>> endpoint_result("Cc1nc(-c2cncnc2)ccc1N [Compound A14]")
0
>>> endpoint_result("Fc1cncc(-c2ccc(Nc3ccccc3)c(C(F)(F)F)n2)c1 [Compound A32]")
0
>>> endpoint_result("Fc1cncc(-c2ccc(NCc3ccccc3)c(C(F)(F)F)n2)c1 [Compound A21]")
0

# query: ABUTH damage score of entry C=CCNc1ccc(-c2cncc(F)c2)nc1C(F)(F)F [Compound A25]
0
